The measured values listed here are drawn from patent US9133158B2.

biological target: UniProt:P19099; assay: G-402 cellular enzyme assay, human CYP11B2 (aldosterone release, HTRF); conditions: G-402 cells, 1 μM Deoxycorticosterone
Sequence (P19099 25-503): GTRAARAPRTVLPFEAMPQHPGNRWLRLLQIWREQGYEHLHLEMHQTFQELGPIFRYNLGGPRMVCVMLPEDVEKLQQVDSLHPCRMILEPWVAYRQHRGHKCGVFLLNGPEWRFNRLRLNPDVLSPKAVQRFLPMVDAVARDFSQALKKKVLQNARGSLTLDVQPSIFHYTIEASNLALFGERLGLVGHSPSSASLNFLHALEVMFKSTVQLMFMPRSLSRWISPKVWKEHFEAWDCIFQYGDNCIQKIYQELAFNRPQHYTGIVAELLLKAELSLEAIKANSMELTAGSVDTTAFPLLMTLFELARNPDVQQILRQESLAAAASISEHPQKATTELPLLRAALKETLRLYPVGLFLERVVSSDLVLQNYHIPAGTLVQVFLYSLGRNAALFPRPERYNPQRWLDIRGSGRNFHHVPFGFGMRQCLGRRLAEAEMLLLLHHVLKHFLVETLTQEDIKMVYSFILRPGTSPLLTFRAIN
metric.name: EC50 (nM)

// solved cases for EC50 follow
{"compound": "O=C1c2ccc(Cl)cc2CCN1c1cncc(-c2cn[nH]c2)c1", "EC50 [nM]": 204}
{"compound": "Cn1ncc(Cl)c1-c1cncc(N2CCc3cc(Cl)ccc3C2=O)c1", "EC50 [nM]": 0.7}
{"compound": "Nc1cccc2c(N3CCc4cc(Cl)ccc4C3=O)cncc12", "EC50 [nM]": 539}
{"compound": "CCC(=O)NC1CCc2c1cncc2N1Cc2cc(Cl)ccc2C1=O (single isomer, unassigned) [Example 339]", "EC50 [nM]": 54.5}

1: Cn1nccc1CNc1cncc(N2CCc3cc(Cl)ccc3C2=O)c1
2: O=C1c2ccc(Cl)cc2CCN1c1cncc(CNc2cccc(Cl)c2)c1
3: CCC(=O)N[C@@H]1CCCc2c1cncc2N1C(=O)c2cc(Cl)ccc2[C@@H]1CC (single isomer, unassigned)
4: Cn1cnnc1-c1cncc(N2CCc3cc(Cl)ccc3C2=O)c1
Q: Hey, can you sort those compounds up there by EC50, smallest first? Output spec: labels arranged per the requested ranking.
A: 2, 1, 3, 4
